# PROTOCOL NOTES: Plasma pharmacokinetics in patients (LC-MS/MS, noncompartmental analysis)
# Type: in vivo, human
# REPORTED CONDITIONS: human, plasma, po, 0.2–22 mg, overall; read-out: Tmax range
RESULT TYPE: Tmax

Task: Determine from records and report Tmax for Cn1c(=O)c(F)c(Nc2ccc(I)cc2F)c2c(=O)n(C[C@@H](O)CO)cnc21 [TAK-733]
Output: 0.5 to 8.1 h

====

# PROTOCOL NOTES: Plasma pharmacokinetics in patients (LC-MS/MS, noncompartmental analysis)
# Format: in vivo, human
# REPORTED CONDITIONS: human, plasma, po, 3.2 mg, 3.2 mg oral, day 1; read-out: AUC(0-τ) Geometric mean (%CV)
RESULT TYPE: AUC (ng·h/mL)
Give bare numbers, in ng·h/mL.

Task: Determine from records and report AUC for Cn1c(=O)c(F)c(Nc2ccc(I)cc2F)c2c(=O)n(C[C@@H](O)CO)cnc21 [TAK-733]
Output: 129
